These measurements were taken from PubChem BioAssay (NCI).

# Test system: DU-145 prostate
# Assay: NCI tumour cell line growth inhibition, 48 h; in the data active = GI50 below about 0.43 µM; inactive = the rest
Output constraint: value belongs to active, inactive

[Q] Outcome logged for COc1ccc(CCn2c3c(c4c(O)cccc42)C(=O)c2ccccc2-3)cc1OC in this assay:
[A] inactive

[Q] Follow-up entry: CCCCCCCCc1cc[n+](CC(=O)c2ccc(Br)cc2)cc1
[A] inactive

[Q] Moving on to the next compound: CS(=O)(=O)Nc1cc(-c2ccc3ncnc(Nc4ccc5c(cnn5Cc5cccc(F)c5)c4)c3c2)cnc1Cl
[A] inactive

[Q] Please give the result for COc1ccc2nc(NNC(=O)c3cnccn3)c3cccn3c2c1 too.
[A] active

[Q] Moving on to CCCCNCC(O)c1cc2c(Cl)cc(Cl)cc2c2cc(C(F)(F)F)ccc12 (configuration not stated)
[A] inactive

[Q] Next compound up: Cc1cc2c([nH]1)CSc1cc(S(=O)(=O)c3ccccc3)c(=O)[nH]c1-2
[A] inactive

[Q] Param item: COC1=CC(c2ccc[nH]2)=N/C1=C\c1[nH]c(C)c(C(=O)CCCCC(=O)NCc2ccccc2)c1C
[A] inactive

[Q] Then this compound: COc1cc(-c2n[nH]nc2-c2ccc3c(c2)OCCO3)cc(OC)c1OC
[A] active

[Q] Param item: COc1ccc2c(c1)C(=O)c1c-2n(CCCCl)c(=O)c2cc(OC)c(OC)cc12
[A] inactive

[Q] Proceed to COc1cc(C2=NNC(c3ccc(N(C)C)cc3)C2)cc(OC)c1OC (configuration not stated)
[A] inactive

[Q] Same question, O=C(NCCCCNC(=O)OCc1ccc2c(Cl)cc(Cl)c(O)c2n1)OCc1ccc2c(Cl)cc(Cl)c(O)c2n1 this time
[A] inactive

[Q] // query: CC(=O)c1nc2ccccc2n1CCN1CCN(C)CC1
[A] inactive

###

# System: IGROV1 ovarian
# Assay: NCI tumour cell line growth inhibition, 48 h
What TGI was measured for each of the following?

[Q] // lookup TGI for CCC12CCCN3CCc4c(n(c5ccccc45)C(O)(C(=O)OC)C1)C32 (stereo not given)
[A] > 100 µM

[Q] Another compound: COc1cccc(C2c3cc4c(cc3OC(NNc3ccccc3)C2C)OCO4)c1O (stereo not given)
[A] 25.5 µM

[Q] Next entry: O=c1c2ccccc2nc2n1CCc1c-2[nH]c2ccc(Br)cc12
[A] > 100 µM

[Q] Then this compound: O=C(c1ccccc1)C(C(=O)c1ccccc1)c1nc2ccccc2sc1=O
[A] > 25 µM

[Q] Also NC(N)=N/N=C(/CC1OC(=O)c2ccccc21)c1ccc2ccccc2c1 (stereo not given) ?
[A] 47.2 µM

[Q] How about COc1cc2c(c(OC)c1OC)-c1cccc(=O)cc1C(NC(C)=O)CC2 (stereo not given) ?
[A] > 100 µM

[Q] Param item: CCN1CCC(Oc2c(C#N)ncc3[nH]c4ncccc4c23)CC1
[A] > 50 µM

[Q] What do we get for NC(N)=NS(=O)(=O)c1ccc(Nc2c3ccccc3nc3c(C(=O)NNCCO)cccc23)cc1 ?
[A] 0.434 µM

[Q] Then COc1cc2c(cc1OC)C1Cc3sccc3CN1CC2 (stereo not given) ?
[A] > 100 µM

[Q] Same read-out for N#CCCOc1cccc(C2(N3CCCCC3)CCCCC2)c1 ?
[A] > 100 µM

[Q] And for CCOC(=O)CCC(C(=O)OCC)n1nnc2ccc(Nc3c(C)[n+]([O-])c4ccc(Cl)cc4[n+]3[O-])cc21 (stereo not given) ?
[A] > 100 µM

[Q] // repeat for O=C(OC1CC(n2cc(F)c(=O)[nH]c2=O)OC1CSC(=O)c1ccccc1)c1ccccc1 (stereo not given) and report
[A] > 100 µM

[Q] Okay, and CN(C)CCn1nc2c3c(c(C(=O)NCCCN(C)CCCNC(=O)c4ccc5c6c(nn5CCN(C)C)-c5ccccc5Nc46)ccc31)Nc1ccccc1-2 ?
[A] 15.6 µM

[Q] Another: CCCCCCCCc1ccc(OCCOCC[N+](C)(C)CC)cc1 (tested in a mixture with another compound)
[A] 14.7 µM

[Q] Lookup CC(C)CC(C(N)=O)C(=O)NC(Cc1ccccc1)NC(=O)CNC(=O)C(C)NC(=O)C(N)Cc1ccc(O)cc1 (stereo not given)
[A] > 100 µM

[Q] Repeat with COC(=O)C(C(=O)C(=O)Nc1nc2ccc([N+](=O)[O-])cc2s1)c1nc2ccc(Cl)cc2[nH]c1=O (stereo not given)
[A] > 100 µM

[Q] Another compound to look at: Cc1cc(-c2ncc(-c3cccnc3)cc2/C=C/c2ccccc2)cnc1-c1cccnc1
[A] > 100 µM

[Q] Item: C[C@H]1COC(c2ccccn2)=N1
[A] > 100 µM

[Q] And C/C=C/[C@@H]1[C@H]2C(=O)[C@]3(Cl)[C@@H](/C=C/C)[C@@H]3C(=O)[C@@]12Cl ?
[A] > 100 µM

[Q] Further, for CN(C)C=Nc1ccc2[nH]c3ccccc3c2c1 ?
[A] > 100 µM
